Test system: mosquito larvae
Assay: whole plant or invertebrate
Conditions: concentration 10 mg/kg, 24 h
Recorded Mosquito larvae Mortality (%) values for a group of compounds are listed next.
MEASURE_NAME: Mosquito larvae Mortality (%)

>>> obs_value("CCOC(=O)[C@@H]1Cc2c([nH]c3ccccc23)CN1 [Ib-7]")
15
>>> obs_value("COc1ccc(C=NNC(=O)[C@@H]2Cc3c([nH]c4ccccc34)[C@H](C)N2)cc1OC [Ic-11]")
100
>>> obs_value("CC(=NNC(=O)[C@@H]1Cc2c([nH]c3ccccc23)[C@H](C)N1)C(C)(C)C [Ic-28]")
100
>>> obs_value("Cc1nccc2c1[nH]c1cc(OC(=O)C(C)(C)C)ccc12 [Ia-8]")
100
>>> obs_value("C[C@@H]1N[C@H](C(=O)NN=Cc2ccc3cc(O)ccc3c2)Cc2c1[nH]c1ccccc21 [Ic-14]")
75
>>> obs_value("C[C@@H]1N[C@H](C(=O)NNC(=O)c2ccccc2)Cc2c1[nH]c1ccccc21 [Id-4]")
25
>>> obs_value("C[C@@H]1N[C@H](C(=O)NN=Cc2ccc(Cl)cc2)Cc2c1[nH]c1ccccc21 [Ic-5]")
50
>>> obs_value("C[C@@H]1N[C@H](C(=O)NN=Cc2ccc3c(c2)OCCO3)Cc2c1[nH]c1ccccc21 [Ic-13]")
60
>>> obs_value("C/C=C/C=NNC(=O)[C@@H]1Cc2c([nH]c3ccccc23)[C@H](C)N1 [Ic-22]")
85
>>> obs_value("COc1ccccc1C=NNC(=O)[C@@H]1Cc2c([nH]c3ccccc23)[C@H](C)N1 [Ic-10]")
50
>>> obs_value("O=C(O)/C=C/c1cc2c([nH]c3ccccc32)c(-c2cccs2)n1 [Ia-15]")
35
>>> obs_value("CCOC(=O)[C@@H]1Cc2c([nH]c3ccccc23)[C@H](CC)N1 [Ib-10]")
60
>>> obs_value("CC(=O)Oc1ccc2c(c1)[nH]c1c(C)nccc12 [Ia-7]")
65
>>> obs_value("C[C@@H]1N[C@H](C(=O)NNC(=O)c2ccncc2)Cc2c1[nH]c1ccccc21 [Id-3]")
50
>>> obs_value("C[C@@H]1N[C@H](C(=O)NN=Cc2ccc(Cl)c(Cl)c2)Cc2c1[nH]c1ccccc21 [Ic-7]")
10
>>> obs_value("C[C@@H]1N[C@H](C(=O)NNC(=O)C(C)(C)C)Cc2c1[nH]c1ccccc21 [Id-6]")
65

====

Test system: mosquito larvae
Test: whole plant or invertebrate
Settings: Culex pipiens, 24 h, read-out: Mosquito larvae Mortality (%)
MEASURE_NAME: mortality at 10 mg/kg (%)

>>> obs_value("C[C@@H]1N[C@H](C(=O)NCN(C)C)Cc2c1[nH]c1ccccc21")
20
>>> obs_value("C[C@@H]1N[C@H](C(=O)N/N=C/c2ccccc2)Cc2c1[nH]c1ccccc21")
100
>>> obs_value("Cc1nc(C(=O)O)cc2c1[nH]c1ccccc12")
50
>>> obs_value("CCOC(=O)[C@@H]1Cc2c([nH]c3ccccc23)[C@H](C)N1")
100
>>> obs_value("CC1=NCCc2c1[nH]c1ccccc21")
35

====

System: tobacco mosaic virus (TMV)
Assay: Anti-TMV in vivo therapeutic effect
Design: species or system tobacco mosaic virus (host Nicotiana tabacum L.cv.Xanthi NN)
Details: Tobacco mosaic virus; treatment dose 500 μg/mL; read-out: Relative inhibition rate (%) In vivo therapy
MEASURE_NAME: inhibition at 500 µg/mL (%)

>>> obs_value("C[C@@H]1N[C@H](C(=O)NNC(=O)c2cccc3nnsc23)Cc2c1[nH]c1ccccc21 [Id-1]")
54.5
>>> obs_value("Cc1nc(C(=O)O)cc2c1[nH]c1ccccc12 [Ia-11]")
29.6
>>> obs_value("CNCC(=O)N[C@@H](CO)C(=O)N[C@H]1[C@H](O)[C@@H](O)[C@H](n2ccc(N)nc2=O)O[C@@H]1C(N)=O [Ningnanmycin, reference compound]")
54.2
>>> obs_value("NC(=O)c1ncn([C@@H]2O[C@H](CO)[C@@H](O)[C@H]2O)n1 [Virazole, reference compound]")
35.4
>>> obs_value("Cc1nccc2c1[nH]c1ccc([N+](=O)[O-])cc12 [Ia-3]")
18.5
>>> obs_value("C[C@@H]1N[C@H](C(=O)O)Cc2c1[nH]c1ccccc21 [Ib-1]")
40.4
>>> obs_value("C[C@@H]1N[C@H](C(=O)NCN(C)C)Cc2c1[nH]c1ccccc21 [Ib-19]")
20.9
>>> obs_value("C[C@H]1N[C@@H](C(=O)O)Cc2c1[nH]c1ccccc21 [Ib-2]")
31.5
>>> obs_value("CC1=NCCc2c1[nH]c1ccccc21 [Harmalan]")
55.1
>>> obs_value("C[C@@H]1N[C@H](C(=O)N/N=C/c2ccccc2)Cc2c1[nH]c1ccccc21 [Ic-1]")
51.5
>>> obs_value("Cc1nccc2c1[nH]c1cc(OC(=O)[C@@H](NC(=O)OCc3ccccc3)C(C)C)ccc12 [Ia-9]")
12.5
>>> obs_value("Cc1nccc2c1[nH]c1c([N+](=O)[O-])cccc12 [Ia-4]")
33.3
>>> obs_value("COc1ccc2c3c([nH]c2c1)C(C)NCC3 (stereo not drawn) [Tetrahydroharmine]")
55.5
>>> obs_value("Cc1nccc2c1[nH]c1cc(OC(=O)NC(C)C)ccc12 [Ia-5]")
32.7
>>> obs_value("CCCCNC(=O)[C@@H]1Cc2c([nH]c3ccccc23)[C@H](C)N1 [Ib-16]")
44.9
>>> obs_value("CC1NCCc2c1[nH]c1ccccc21 (stereo not drawn) [Tetrahydroharmane]")
57.2
>>> obs_value("C[C@@H]1N[C@H](C(=O)NN)Cc2c1[nH]c1ccccc21 [Ib-15]")
48.2
>>> obs_value("O=C(O)[C@@H]1Cc2c([nH]c3ccccc23)[C@H](c2ccccc2)N1 [Ib-5]")
24.3
>>> obs_value("C[C@@H]1N[C@H](C(=O)NC2CCCCC2)Cc2c1[nH]c1ccccc21 [Ib-17]")
44.6
>>> obs_value("COc1ccc2c(c1)[nH]c1c(C)nccc12 [Harmine]")
38.6
>>> obs_value("CCOC(=O)[C@@H]1Cc2c([nH]c3ccccc23)[C@H](C)N1 [Ib-13]")
43.9

The reported numbers originate from patent US10208033B2.
